The measurements presented in this section are drawn from PubChem BioAssay (NCI).

Item-by-item account of TGI
System: SF-268 CNS
Assay: NCI tumour cell line growth inhibition, 48 h

# get_value(readout= TGI, system= SF-268 CNS) for "O=[N+]([O-])c1ccc(-c2ccc(C3=Nn4c(CNc5ccccc5Cl)nnc4SC3)o2)cc1"
> 100 µM

---
# get_value(readout= TGI, system= SF-268 CNS) for "COc1cc(OC)c(OC)cc1/C=C/c1nc2ccccc2s1"
> 100 µM

"CC(C)[C@@H]1CC[C@]2(CO2)[C@@H]2C(=O)OCC(C(=O)O)=C[C@H]21" ?
> 52.5 µM

"C=CCON(C(=O)OC(C)(C)C)C(C)(C)C" ?
> 100 µM

"COC(=O)/C=C(\C(=O)OC)c1cc(C)c2cc(C(C)C)ccc(C)c1-2" ?
> 100 µM

"Cc1cc2nc3c(C#N)c(-c4ccccc4)/c(=C\Nc4ccc(F)cc4)c(=O)n3c2cc1C" ?
> 100 µM
